- Measurement Target: Xanthine dehydrogenase/oxidase (Homo sapiens)
- Sequence (P47989 whole entry): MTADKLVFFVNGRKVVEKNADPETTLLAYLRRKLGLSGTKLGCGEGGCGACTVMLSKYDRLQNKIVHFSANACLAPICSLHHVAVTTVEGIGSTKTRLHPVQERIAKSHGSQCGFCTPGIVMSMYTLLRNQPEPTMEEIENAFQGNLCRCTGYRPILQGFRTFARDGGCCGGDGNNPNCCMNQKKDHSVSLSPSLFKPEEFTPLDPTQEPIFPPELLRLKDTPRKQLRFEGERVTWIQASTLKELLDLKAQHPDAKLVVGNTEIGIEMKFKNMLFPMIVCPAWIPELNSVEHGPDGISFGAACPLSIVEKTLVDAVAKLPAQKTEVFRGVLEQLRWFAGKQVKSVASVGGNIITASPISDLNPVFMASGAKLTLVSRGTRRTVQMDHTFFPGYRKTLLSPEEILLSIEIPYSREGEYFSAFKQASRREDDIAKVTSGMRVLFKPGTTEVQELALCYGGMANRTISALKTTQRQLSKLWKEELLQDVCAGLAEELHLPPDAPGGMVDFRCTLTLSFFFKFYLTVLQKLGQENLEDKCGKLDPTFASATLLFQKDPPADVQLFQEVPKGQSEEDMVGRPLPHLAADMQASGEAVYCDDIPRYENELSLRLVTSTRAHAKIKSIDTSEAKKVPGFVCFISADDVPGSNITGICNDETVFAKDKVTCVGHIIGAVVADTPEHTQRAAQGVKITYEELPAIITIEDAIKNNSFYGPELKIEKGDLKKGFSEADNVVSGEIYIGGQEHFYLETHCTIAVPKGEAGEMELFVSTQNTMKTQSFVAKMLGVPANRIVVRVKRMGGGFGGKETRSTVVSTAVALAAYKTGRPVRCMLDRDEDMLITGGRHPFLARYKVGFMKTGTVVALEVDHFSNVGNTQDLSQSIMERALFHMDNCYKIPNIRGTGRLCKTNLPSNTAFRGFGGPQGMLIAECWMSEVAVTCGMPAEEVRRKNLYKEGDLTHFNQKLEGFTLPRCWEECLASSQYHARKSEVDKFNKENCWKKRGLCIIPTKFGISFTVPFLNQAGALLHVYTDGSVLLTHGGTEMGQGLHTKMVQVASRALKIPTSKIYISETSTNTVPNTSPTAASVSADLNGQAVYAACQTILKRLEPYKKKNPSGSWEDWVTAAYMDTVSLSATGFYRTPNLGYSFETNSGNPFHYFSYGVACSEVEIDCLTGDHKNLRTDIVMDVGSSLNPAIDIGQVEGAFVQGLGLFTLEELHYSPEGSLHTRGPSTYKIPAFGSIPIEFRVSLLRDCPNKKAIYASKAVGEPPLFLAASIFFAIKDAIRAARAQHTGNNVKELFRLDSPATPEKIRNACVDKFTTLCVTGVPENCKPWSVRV
- Method Summary: Inhibition of XOD (unknown origin) using xanthine as substrate preincubated for 30 mins followed by xanthine addition measured after 30 mins by microplate reader
# maps each entry to its IC50

Example cases with answers are listed next.
Identify the reported IC50 for the following entry. Cc1nc(-c2ccc(OCC(C)C)c(C#N)c2)sc1C(=O)O
0.16 µM

Identify the reported IC50 for the following entry. CC(C)=CCc1c(O)cc(-c2cc3ccc(O)cc3o2)cc1O
0.25 µM

Identify the reported IC50 for the following entry. COc1ccc2c(=O)c(-c3ccc(O)cc3)coc2c1
13 µM

# next molecule below
Identify the reported IC50 for the following entry. CC1(C)C=Cc2c(O)cc(-c3cc4ccc(O)cc4o3)cc2O1
5.1 µM

* * *

- Measurement Target: Xanthine dehydrogenase/oxidase (Homo sapiens)
- Method Summary: Inhibition of XOD (unknown origin) using xanthine as substrate at 1 uM preincubated for 30 mins followed by xanthine addition measured after 30 mins by microplate reader relative to control
- Test Settings: 0.5 h, time 60 min
Measured Property: inhibition at 1 µM (%)
Enter your answer as a number in %; do not include the unit.

Example cases with answers are listed next.
Identify the reported inhibition at 1 µM for the following entry. CC1(C)C=Cc2c(O)cc(-c3cc4ccc(O)cc4o3)cc2O1 [MORACIN D]
32

Identify the reported inhibition at 1 µM for the following entry. CC(C)=CCc1c(O)cc(-c2cc3ccc(O)cc3o2)cc1O [MORACIN C]
70

Identify the reported inhibition at 1 µM for the following entry. COc1ccc2c(=O)c(-c3ccc(O)cc3)coc2c1 [ISOFORMONENTIN]
25

---
Identify the reported inhibition at 1 µM for the following entry. Cc1nc(-c2ccc(OCC(C)C)c(C#N)c2)sc1C(=O)O [FEBUXOSTAT]
75

* * *

- Measurement Target: Xanthine dehydrogenase/oxidase (Homo sapiens)
- Method Summary: Inhibition of XOD (unknown origin)
Measured Property: pIC50
Scale for pIC50: -log10 of concentration given in mol/L; no unit attached.

GET pIC50 where system = Xanthine dehydrogenase/oxidase (Homo sapiens) and item = O=c1c(O)c(-c2ccc(O)cc2O)oc2cc(O)cc(O)c12
4.60
